Consider the following binders; for each one, report its ELISA binding ratio (fold-change over background).
experimental.target: T1, Avi/His-HuIL18BPa (recombinant human IL-18BP isoform A with Avi and poly-His tags) (human, biotinylated with BirA on the Avi tag in some assays)
T1 construct: also called human IL-18BP-Avi-His
T1 chain: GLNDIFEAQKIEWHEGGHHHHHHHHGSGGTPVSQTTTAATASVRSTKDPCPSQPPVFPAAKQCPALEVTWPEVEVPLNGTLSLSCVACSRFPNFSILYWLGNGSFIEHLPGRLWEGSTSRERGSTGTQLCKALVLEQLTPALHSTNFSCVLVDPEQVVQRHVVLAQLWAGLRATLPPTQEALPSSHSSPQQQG
protocol.summary: ELISA, coated IL-18BP
Numbers only, in fold over background.

Here are 2 binders together with their reported answers.
binder	quantitative.result
anti-IL18BP antibody BP-04 (antibody, V domains shown, also called BP-04 (hybridoma); BP-04 (parental)) VH: HVHLHQSGAELVRPGVSVKISCRGSGYTFTDYDVHWVKQSHAKSLEWIGVISTYYGDVGYNQEFKGKATMTLDKSSSTSYLELARLTSEDSAIYYCARSGTYYYGTRESHALDYWGQGTSVTVSS VL: DIQMTQSPASLSVSVGETVTITCRTSDNVYSNLAWYQQKQGKSPQLLVYGAINLADGVPSRFSGSGSDTQYSLKINNLQSEDFGSYYCQHFWGNPYTFGGGTKLEIK	39.7
anti-IL18BP antibody BP-15 (antibody, human IgG1, V domains shown) VH: QVQLVQSGAEVKKPGASVKVSCKASGYTFTTYDINWVRQAPGQGLEWMGIINPSGGSTSYAQKFQGRVTMTRDTSTSTVYMELSSLRSEDTAVYYCATGIGELDFDYWGQGTLVTVSS VL: DIQMTQSPSSLSASVGDRVTITCRASQSISSYLNWYQQKPGKAPKLLIYKASTLHNGVPSRFSGSGSGTDFTLTISNLQPEDFATYYCQQAISFPLTFGGGTKVEIK	32.7

The recorded ELISA binding ratio (fold-change over background) for entry anti-IL18BP antibody BP-09 (antibody, human IgG1, V domains shown) VH: QVQLQQSGAELVRPGASVTLSCKASGYRFTDYAMHWVKQTPVHGLQWIGIIDPETGDTAFNQKFKGKATLTADKSSSTAYMELSSLTSEDSAVYYCTRPRGAMDYWGQGTSVTVSS VL: DIVMTQSHKFMSTSGGDRVSITCKASQDVGTAVAWYQQKPGISPKLLIYWASTRHTGVPDRFTGSGSGTDFTLAISNVQSEDLADYFCQQYSSHPYTFGGGTKLEIK equals 44.4
